Target: carbohydrate recognition domain of human galectin-3 (Galectin-3-CRD) (Homo sapiens, UniProt P17931)
Sequence (P17931 118-248 limits assumed): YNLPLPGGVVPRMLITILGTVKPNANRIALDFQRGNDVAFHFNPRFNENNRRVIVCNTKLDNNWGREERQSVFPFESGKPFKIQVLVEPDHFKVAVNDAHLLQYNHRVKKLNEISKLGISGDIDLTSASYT
pKd: −log10 of the molar value.
Decision: pKd compared against 8; not below it gives Fulfilled, below it gives Not fulfilled.

INSERT INTO measurements (compound, classname) VALUES
  ('COCCCNC(=O)[C@@H](OCc1ccc(Br)cc1)[C@@H]1OC(CO)[C@H](O)C(n2cc(-c3cc(F)c(F)c(F)c3)nn2)C1OC (some centres unmarked) [Compound 20]', 'Not fulfilled'),
  ('COCCCNC(=O)[C@@H](OCc1ccc(Br)cc1)[C@@H]1OC(CO)[C@H](O)C(n2cc(-c3cc(F)cc(F)c3)nn2)C1OC (some centres unmarked) [Compound 21]', 'Not fulfilled'),
  ('COC1C(n2cc(-c3cc(F)c(F)c(F)c3)nn2)[C@@H](O)C(CO)O[C@H]1[C@H](OCc1ccc(Br)cc1)C(=O)NC(C)C (some centres unmarked) [Compound 23]', 'Fulfilled'),
  ('[2H]C([2H])([2H])OC1C(n2cc(-c3cc(F)c(F)c(F)c3)nn2)[C@@H](O)C(CO)O[C@H]1[C@H](OCc1ccc(Cl)c(F)c1)C(=O)NC(C)C (some centres unmarked) [Compound 90, reference compound]', 'Not fulfilled'),
  ('COCCCN(C)C(=O)[C@@H](OCc1ccc(Br)cc1)[C@@H]1OC(CO)[C@H](O)C(n2cc(-c3cc(F)cc(F)c3)nn2)C1OC (some centres unmarked) [Compound 22]', 'Not fulfilled'),
  ('COC1C(n2cc(-c3cc(F)c(F)c(F)c3)nn2)[C@@H](O)C(CO)O[C@H]1[C@H](OCc1ccc(Cl)cc1)C(=O)OC(C)C (some centres unmarked) [Compound 87, reference compound]', 'Not fulfilled');

----------
Biological target: galectin-3 (Homo sapiens, UniProt P17931)
Sequence (P17931 whole entry): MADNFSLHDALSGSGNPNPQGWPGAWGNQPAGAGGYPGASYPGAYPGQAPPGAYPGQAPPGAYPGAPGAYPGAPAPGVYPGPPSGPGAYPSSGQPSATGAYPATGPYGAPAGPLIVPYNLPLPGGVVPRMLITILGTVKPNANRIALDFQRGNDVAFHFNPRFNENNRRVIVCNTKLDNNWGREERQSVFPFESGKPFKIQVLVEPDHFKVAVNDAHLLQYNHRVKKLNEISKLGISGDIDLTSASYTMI
experimentalReadout: IC50

INSERT INTO results (compound, experimentalreadout, result) VALUES
  ('[2H]C([2H])([2H])OC1C(n2cc(-c3cc(F)c(F)c(F)c3)nn2)[C@@H](O)C(CO)O[C@H]1[C@H](OCc1ccc(Br)cc1)C(=O)NC1CC1(F)F (stereo partly drawn)', 'IC50', '826 nM'),
  ('COC1C(n2cc(-c3cc(F)c(F)c(F)c3)nn2)[C@@H](O)C(CO)O[C@H]1[C@H](OCc1ccc(Cl)cc1)C(=O)OC(C)C (stereo partly drawn) [Compound 87, reference compound]', 'IC50', '724 nM'),
  ('[2H]C([2H])([2H])OC1C(n2cc(-c3cc(F)c(F)c(F)c3)nn2)[C@@H](O)C(CO)O[C@H]1[C@H](OCc1ccc(Br)cc1)C(=O)NC(C)C (stereo partly drawn)', 'IC50', '171 nM');

----------
Entries with reported IC50 on galectin-3 (Homo sapiens)
experimentalReadout: IC50 (nM)

INSERT INTO measurements (compound, measurednumber) VALUES
  ('[2H]C([2H])([2H])OC1C(n2cc(-c3cc(F)c(F)c(F)c3)nn2)[C@@H](O)C(CO)O[C@H]1[C@H](OCc1ccc(Cl)c(F)c1)C(=O)NC(C)C (stereo partly drawn) [Compound 90, reference compound]', 1190),
  ('[2H]C([2H])([2H])OC1C(n2cc(-c3cc(F)c(F)c(F)c3)nn2)[C@@H](O)C(CO)O[C@H]1[C@H](OCc1ccc(Br)cc1)C(=O)NC1(C)CC1 (stereo partly drawn)', 201),
  ('[2H]C([2H])([2H])OC1C(n2cc(-c3cc(F)c(F)c(F)c3)nn2)[C@@H](O)C(CO)O[C@H]1[C@H](OCc1ccc(Br)cc1)C(=O)NC1(C(F)(F)F)CC1 (stereo partly drawn)', 702);

----------
Entries with reported Kd on carbohydrate recognition domain of human galectin-3 (Galectin-3-CRD) (Homo sapiens)
experimentalReadout: Kd (nM)

INSERT INTO measurements (compound, experimentalreadout, measurednumber) VALUES
  ('[2H]C([2H])([2H])OC1C(n2cc(-c3cc(F)c(F)c(F)c3)nn2)[C@@H](O)C(CO)O[C@H]1[C@H](OCc1ccc(Br)cc1)C(=O)NC1(C(F)(F)F)CC1 (stereo partly drawn)', 'Kd', 17),
  ('[2H]C([2H])([2H])OC1C(n2cc(-c3cc(F)c(F)c(F)c3)nn2)[C@@H](O)C(CO)O[C@H]1[C@H](OCc1ccc(Br)cc1)C(=O)NC1CC(F)(F)C1 (stereo partly drawn)', 'Kd', 3.6),
  ('[2H]C([2H])([2H])OC1C(n2cc(-c3cc(F)c(F)c(F)c3)nn2)[C@@H](O)C(CO)O[C@H]1[C@H](OCc1ccc(Br)cc1)C(=O)NC1CC1 (stereo partly drawn)', 'Kd', 11),
  ('COC1C(n2cc(-c3cc(F)c(F)c(F)c3)nn2)[C@@H](O)C(CO)O[C@H]1[C@H](OCc1ccc(Br)cc1)C(=O)NC(CF)CF (stereo partly drawn)', 'Kd', 9),
  ('CCNC(=O)[C@@H](OCc1ccc(Br)cc1)[C@@H]1OC(CO)[C@H](O)C(n2cc(-c3cc(F)c(F)c(F)c3)nn2)C1OC (stereo partly drawn)', 'Kd', 32),
  ('COC1C(n2cc(-c3cc(F)c(F)c(F)c3)nn2)[C@@H](O)C(CO)O[C@H]1[C@H](OCc1ccc(Cl)cc1)C(=O)N(C)C (stereo partly drawn) [Compound 83, reference compound]', 'Kd', 570),
  ('[2H]C([2H])([2H])OC1C(n2cc(-c3cc(F)c(F)c(F)c3)nn2)[C@@H](O)C(CO)O[C@H]1[C@H](OCc1ccc(Br)c(F)c1)C(=O)NC(C)C (stereo partly drawn)', 'Kd', 10),
  ('[2H]C([2H])([2H])OC1C(n2cc(-c3cc(F)c(F)c(F)c3)nn2)[C@@H](O)C(CO)O[C@H]1[C@H](OCc1ccc(Br)cc1)C(=O)N[C@H]1C[C@H]1F (stereo partly drawn)', 'Kd', 13),
  ('COC1C(n2cc(-c3cc(F)c(F)c(F)c3)nn2)[C@@H](O)C(CO)O[C@H]1[C@H](OCc1ccc(Cl)cc1)C(=O)NC(C)C (stereo partly drawn) [Compound 89, reference compound]', 'Kd', 70),
  ('COC1C(n2cc(-c3cc(F)c(F)c(F)c3)nn2)[C@@H](O)C(CO)O[C@H]1[C@H](OCc1ccc(Br)cc1)C(=O)NC1CC1 (stereo partly drawn)', 'Kd', 18),
  ('CC(C)OC(=O)[C@@H](OCc1ccc(Cl)cc1)[C@@H]1OC(CO)[C@H](O)C(n2cc(-c3cc(F)c(F)c(F)c3)nn2)C1O (stereo partly drawn) [Compound 86, reference compound]', 'Kd', 0.4),
  ('[2H]C([2H])([2H])OC1C(n2cc(-c3cc(F)c(F)c(F)c3)nn2)[C@@H](O)C(CO)O[C@H]1[C@H](OCc1ccc(Cl)cc1)C(=O)NC(C)C (stereo partly drawn) [Compound 88, reference compound]', 'Kd', 67),
  ('[2H]C([2H])([2H])OC1C(n2cc(-c3cc(F)c(F)c(F)c3)nn2)[C@@H](O)C(CO)O[C@H]1[C@H](OCc1ccc(Br)cc1)C(=O)NC1CNC1 (stereo partly drawn)', 'Kd', 22),
  ('[2H]C([2H])([2H])OC1C(n2cc(-c3cc(F)c(F)c(F)c3)nn2)[C@@H](O)C(CO)O[C@H]1[C@H](OCc1ccc(Br)cc1)C(=O)NC1(CO)CC1 (stereo partly drawn)', 'Kd', 21),
  ('CC(C)OC(=O)[C@@H](OCc1ccc(Br)cc1)[C@@H]1OC(CO)[C@H](O)C(n2cc(-c3cc(F)c(F)c(F)c3)nn2)C1O (stereo partly drawn)', 'Kd', 26),
  ('[2H]C([2H])([2H])OC1C(n2cc(-c3cc(F)c(F)c(F)c3)nn2)[C@@H](O)C(CO)O[C@H]1[C@H](OCc1ccc(Br)cc1)C(=O)NC1CC1(F)F (stereo partly drawn)', 'Kd', 11),
  ('CNC(=O)[C@@H](OCc1ccc(Br)cc1)[C@@H]1OC(CO)[C@H](O)C(n2cc(-c3cc(F)c(F)c(F)c3)nn2)C1OC (stereo partly drawn)', 'Kd', 23),
  ('[2H]C([2H])([2H])OC1C(n2cc(-c3cc(F)c(F)c(F)c3)nn2)[C@@H](O)C(CO)O[C@H]1[C@H](OCc1ccc(Br)cc1)C(=O)N(C)C (stereo partly drawn)', 'Kd', 87),
  ('[2H]C([2H])([2H])OC1C(n2cc(-c3cc(F)c(F)c(F)c3)nn2)[C@@H](O)C(CO)O[C@H]1[C@H](OCc1ccc(Br)cc1)C(=O)NC(C)(C)CO (stereo partly drawn)', 'Kd', 20),
  ('[2H]C([2H])([2H])OC1C(n2cc(-c3cc(F)c(F)c(F)c3)nn2)[C@@H](O)C(CO)O[C@H]1[C@H](OCc1ccc(Br)cc1)C(=O)NC1CCC1 (stereo partly drawn)', 'Kd', 2.2),
  ('[2H]C([2H])([2H])OC1C(n2cc(-c3cc(F)c(F)c(F)c3)nn2)[C@@H](O)C(CO)O[C@H]1[C@H](OCc1ccc(Br)cc1)C(=O)NC([2H])(C([2H])([2H])[2H])C([2H])([2H])[2H] (stereo partly drawn)', 'Kd', 2.9);
